# Target of assay: B2 bradykinin receptor (Homo sapiens)
# Sequence (P30411 whole entry): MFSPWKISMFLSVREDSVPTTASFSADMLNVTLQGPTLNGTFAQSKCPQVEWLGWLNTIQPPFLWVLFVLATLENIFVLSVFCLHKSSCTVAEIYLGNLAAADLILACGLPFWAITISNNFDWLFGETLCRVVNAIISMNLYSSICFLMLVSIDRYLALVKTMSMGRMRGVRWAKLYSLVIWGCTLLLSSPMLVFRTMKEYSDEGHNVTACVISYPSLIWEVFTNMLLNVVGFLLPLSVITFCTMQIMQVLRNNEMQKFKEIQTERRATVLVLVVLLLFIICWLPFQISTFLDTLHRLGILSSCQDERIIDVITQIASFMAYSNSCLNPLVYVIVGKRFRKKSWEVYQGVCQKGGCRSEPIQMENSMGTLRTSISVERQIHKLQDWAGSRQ
# Test protocol: Binding affinity towards human cloned Bradykinin receptor B2 expressed in CHO cells by [3H]bradykinin displacement.
# Assay type: cell-based
pKi: −log10 of the molar value.
Endpoint: pKi

N=C(N)NCCC[C@@H](N)C(=O)N[C@@H](CCCNC(=N)N)C(=O)N1CCC[C@H]1C(=O)N1CC(O)C[C@H]1C(=O)NCC(=O)N[C@@H](Cc1cccs1)C(=O)N[C@@H](CO)C(=O)N[C@H]1CCN(CC(=O)N[C@@H](CCCNC(=N)N)C(=O)O)C1=O (some centres not stated)
5.99
N=C(N)NCCC[C@@H](N)C(=O)N[C@@H](CCCNC(=N)N)C(=O)N1CCC[C@H]1C(=O)N1CC(O)C[C@H]1C(=O)NCC(=O)N[C@@H](Cc1cccs1)C(=O)N[C@@H](CO)C(=O)N[C@H]1CCCCN(CC(=O)N[C@@H](CCCNC(=N)N)C(=O)O)C1=O (some centres not stated)
6.28
N=C(N)NCCC[C@@H](N)C(=O)N[C@@H](CCCNC(=N)N)C(=O)N1CCC[C@H]1C(=O)N1CC(O)C[C@H]1C(=O)NCC(=O)N[C@@H](Cc1cccs1)C(=O)N[C@@H](CO)C(=O)N[C@@H]1CCN(CC(=O)N[C@@H](CCCNC(=N)N)C(=O)O)C1=O (some centres not stated)
5.31
N=C(N)NCCC[C@@H](N)C(=O)N[C@@H](CCCNC(=N)N)C(=O)N1CCC[C@H]1C(=O)N1CC(O)C[C@H]1C(=O)NCC(=O)N[C@@H](Cc1cccs1)C(=O)N[C@@H](CO)C(=O)N[C@H]1CCCN(CC(=O)N[C@@H](CCCNC(=N)N)C(=O)O)C1=O (some centres not stated)
4.73

A: N=C(N)NCCC[C@@H](N)C(=O)N[C@@H](CCCNC(=N)N)C(=O)N1CCC[C@H]1C(=O)N1C[C@H](O)C[C@H]1C(=O)NCC(=O)N[C@@H](Cc1cccs1)C(=O)N[C@@H](CO)C(=O)N[C@@H]1CSc2ccccc2N(CC(=O)N[C@@H](CCCNC(=N)N)C(=O)O)C1=O
B: N=C(N)NCCC[C@H](NC(=O)CN1C(=O)[C@H](NC(=O)[C@H](CO)NC(=O)[C@H](Cc2cccs2)NC(=O)CNC(=O)[C@@H]2C[C@@H](O)CN2C(=O)[C@@H]2CCCN2C(=O)[C@H](CCCNC(=N)N)NC(=O)[C@@H](N)CCCCN)CSc2ccccc21)C(=O)O
C: Cc1ccc2c(c1)SC[C@@H](NC(=O)[C@H](CO)NC(=O)[C@H](Cc1cccs1)NC(=O)CNC(=O)[C@@H]1C[C@@H](O)CN1C(=O)[C@@H]1CCCN1C(=O)[C@H](CCCNC(=N)N)NC(=O)[C@H](N)CCCNC(=N)N)C(=O)N2CC(=O)N[C@@H](CCCNC(=N)N)C(=O)O
Prompt: Arrange items by their pKi values in increasing order. To answer, arrange all of the labels according to the requested order.
Response: C, A, B
